target: mCNGA3 (mouse CNGA3) (Mus musculus, UniProt A0A6H2E2T0); construct: HEK293T (PIEZO1-deleted) cells, also Xenopus oocytes; homomer; assay: inside-out patch clamp, HEK293T, Hill fit
Sequence (A0A6H2E2T0 1-630): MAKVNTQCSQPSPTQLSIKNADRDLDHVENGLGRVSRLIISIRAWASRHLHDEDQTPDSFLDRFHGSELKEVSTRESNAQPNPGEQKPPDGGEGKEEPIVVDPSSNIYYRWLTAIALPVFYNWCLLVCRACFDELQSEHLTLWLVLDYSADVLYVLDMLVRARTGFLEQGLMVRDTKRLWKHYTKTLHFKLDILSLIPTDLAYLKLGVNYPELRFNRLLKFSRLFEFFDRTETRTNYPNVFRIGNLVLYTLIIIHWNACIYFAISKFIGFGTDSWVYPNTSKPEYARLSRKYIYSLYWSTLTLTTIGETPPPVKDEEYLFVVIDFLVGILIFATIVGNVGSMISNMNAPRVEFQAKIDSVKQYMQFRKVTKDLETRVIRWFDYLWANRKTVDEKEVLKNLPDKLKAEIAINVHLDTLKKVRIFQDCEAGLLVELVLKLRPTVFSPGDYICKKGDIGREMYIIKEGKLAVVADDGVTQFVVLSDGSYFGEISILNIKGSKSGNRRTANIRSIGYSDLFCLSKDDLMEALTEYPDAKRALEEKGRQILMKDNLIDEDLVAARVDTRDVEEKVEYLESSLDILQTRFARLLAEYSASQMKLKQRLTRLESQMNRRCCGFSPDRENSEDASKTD
READOUT: EC50

Ask: Quick check: EC50 of `Nc1nc2c(ncn2[C@@H]2O[C@@H]3COP(=O)(O)O[C@H]3[C@H]2O)c(=O)[nH]1` ?
Reply: 21.8 µM

###

Molecular target: sqCNGA3 (squirrel CNGA3) (Ictidomys tridecemlineatus, UniProt A0A6H2E3H4)
Construct: pMO vector, no tag stated; HEK293T (PIEZO1-deleted) cells, also Xenopus oocytes; homomer
Sequence (A0A6H2E3H4 1-672): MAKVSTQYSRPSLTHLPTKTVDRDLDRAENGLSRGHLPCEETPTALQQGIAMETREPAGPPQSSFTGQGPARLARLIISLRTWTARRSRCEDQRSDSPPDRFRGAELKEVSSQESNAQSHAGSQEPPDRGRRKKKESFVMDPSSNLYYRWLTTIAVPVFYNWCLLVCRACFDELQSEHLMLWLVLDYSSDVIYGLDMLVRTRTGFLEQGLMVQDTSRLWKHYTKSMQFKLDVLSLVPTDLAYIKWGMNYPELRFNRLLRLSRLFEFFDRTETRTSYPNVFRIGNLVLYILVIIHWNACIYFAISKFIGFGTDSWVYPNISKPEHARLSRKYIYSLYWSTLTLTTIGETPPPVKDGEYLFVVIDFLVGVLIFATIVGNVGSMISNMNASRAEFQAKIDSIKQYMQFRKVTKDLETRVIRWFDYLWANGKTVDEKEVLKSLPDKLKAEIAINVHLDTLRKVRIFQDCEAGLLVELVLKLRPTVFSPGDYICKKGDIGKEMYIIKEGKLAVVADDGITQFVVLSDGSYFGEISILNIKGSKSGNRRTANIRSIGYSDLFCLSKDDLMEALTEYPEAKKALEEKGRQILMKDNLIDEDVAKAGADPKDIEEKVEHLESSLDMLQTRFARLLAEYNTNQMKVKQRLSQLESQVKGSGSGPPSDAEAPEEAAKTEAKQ
Assay: inside-out patch clamp, HEK293T, Hill fit
READOUT: EC50 (µM)
Output spec: scalar in µM, unitless text.

Ask: Quick check: EC50 of `Nc1nc2c(ncn2[C@@H]2O[C@@H]3COP(=O)(O)O[C@H]3[C@H]2O)c(=O)[nH]1` ?
Reply: 26.4
